Tested on: HCT-116
experiment.summary: Cytotoxicity against p53 deficient human HCT116 cells assessed as cell growth inhibition after 72 hrs by MTS assay
Format: functional, cell-based
test.settings: HCT-116, 72 h
measure: pIC50
Please note pIC50 is a logarithmic value: minus log10 of concentration in mol/L. Answer with that number alone.

Some solved cases for reference:
[
  {
    "molecule": "OC[C@H]1O[C@@H](n2c3ccsc3c3c(-c4cc5ccccc5o4)ncnc32)[C@H](O)[C@@H]1O",
    "pIC50": 4.91
  },
  {
    "molecule": "COc1ncnc2c1c1ccsc1n2[C@@H]1O[C@H](CO)[C@@H](O)[C@H]1O",
    "pIC50": 6.19
  },
  {
    "molecule": "Cc1ncnc2c1c1ccsc1n2[C@@H]1O[C@H](CO)[C@@H](O)[C@H]1O",
    "pIC50": 6.48
  }
]

For the compound shown here, COc1ncnc2c1c1sccc1n2[C@@H]1O[C@H](CO)[C@@H](O)[C@H]1O , give the reported pIC50.
6.89

State the recorded pIC50 for this entry: CSc1ncnc2c1c1ccsc1n2[C@@H]1O[C@H](CO)[C@@H](O)[C@H]1O
6.57
